- System: eastern black nightshade
- METHOD SUMMARY: Test C pre-/postemergence test
- Format: in vivo, Solanum ptycanthum
- TEST PARAMETERS: 125 g ai/ha, preemergence; scale 0 (no effect) to 100 (complete control)
Readings of Nightshade plant response rating for the listed compounds
Respond with the number and no other words.

Sample records with Nightshade plant response rating:
[
  {
    "COMPOUND": "C#CCOc1c(CS(=O)(=O)c2cccc[n+]2[O-])c(C(F)(F)F)nn1C",
    "TARGET OR TEST SYSTEM": "eastern black nightshade",
    "Nightshade plant response rating": 90
  },
  {
    "COMPOUND": "Cn1nc(C(F)(F)F)c(C[S+]([O-])c2cc(Cl)cc[n+]2[O-])c1Cl (racemic)",
    "TARGET OR TEST SYSTEM": "eastern black nightshade",
    "Nightshade plant response rating": 95
  }
]

Inquiry: Can you look up the measured Nightshade plant response rating of Cn1nc(C(F)(F)F)c(C[S+]([O-])c2cccc[n+]2[O-])c1OCC(F)F (stereo not drawn) for me?
Reply text: 100

Inquiry: Also Cn1nc(C(F)(F)F)c(C[S+]([O-])c2ccc(F)c[n+]2[O-])c1Cl (stereo not drawn) ?
Reply text: 85

Inquiry: Moving on to the next compound: Cc1cc[n+]([O-])c(S(=O)(=O)Cc2c(C(F)(F)F)nn(C)c2OCC(F)F)c1
Reply text: 100

Inquiry: Entry to check: C#CCOc1c(C[S+]([O-])c2cccc[n+]2[O-])c(C(F)(F)F)nn1C (stereo not drawn)
Reply text: 90

Inquiry: Try the compound Cc1cc[n+]([O-])c(S(=O)(=O)Cc2c(C(F)(F)F)nn(C)c2OC(C)C(F)(F)F)c1 (stereo not drawn)
Reply text: 95

Inquiry: // same read-out, input: CC(Oc1c(CS(=O)(=O)c2cccc[n+]2[O-])c(C(F)(F)F)nn1C)C(F)(F)F (stereo not drawn)
Reply text: 80

Inquiry: Try Cn1nc(C(F)(F)F)c(C[S+]([O-])c2ccc(Cl)c[n+]2[O-])c1OCC(F)(F)F (racemic) next.
Reply text: 100

---

- Tested on: common groundsel
- METHOD SUMMARY: Test F preemergence test
- Assay type: in vivo, Senecio vulgaris
- TEST PARAMETERS: 125 g ai/ha, preemergence, scale 0 to 100
ASSAY ENDPOINT: Groundsel plant response rating
In your answer, state the number alone without any accompanying words.

Here is how some compounds turned out for Groundsel plant response rating.
[
  {
    "COMPOUND": "Cn1nc(C(F)(F)F)c(C[S+]([O-])c2ccc(Cl)c[n+]2[O-])c1OCC(F)(F)F (racemic)",
    "READOUT VALUE": 90
  },
  {
    "COMPOUND": "Cc1cc[n+]([O-])c(S(=O)(=O)Cc2c(C(F)(F)F)nn(C)c2OCC(F)(F)F)c1",
    "READOUT VALUE": 100
  }
]

Now look at this one.
Inquiry: What value of Groundsel plant response rating has been recorded for this entry: Cn1nc(C(F)(F)F)c(C[S+]([O-])c2cccc[n+]2[O-])c1Cl (stereo not drawn)
Reply text: 80

---

- Test system: kochia
- METHOD SUMMARY: Test C pre-/postemergence test
- Type: in vivo, Kochia scoparia
- TEST PARAMETERS: 125 g ai/ha, preemergence; scale 0 (no effect) to 100 (complete control)
ASSAY ENDPOINT: Kochia plant response rating
Just the number, please, no unit after it.

Known results for compounds:
[
  {
    "COMPOUND": "Cn1nc(C(F)(F)F)c(C[S+]([O-])c2ccc(F)c[n+]2[O-])c1Cl (stereo not shown)",
    "Kochia plant response rating": 100
  },
  {
    "COMPOUND": "CCn1nc(C(F)(F)F)c(CS(=O)(=O)c2cccc[n+]2[O-])c1OCC(F)(F)F",
    "Kochia plant response rating": 100
  },
  {
    "COMPOUND": "Cn1nc(C(F)(F)F)c(C[S+]([O-])c2cc(Cl)cc[n+]2[O-])c1Cl (racemic)",
    "Kochia plant response rating": 60
  }
]

API: the following record is the query input.
Inquiry: Could you share what Kochia plant response rating was measured for Cn1nc(C(F)(F)C(F)(F)F)c(C[S+]([O-])c2ccc(Cl)c[n+]2[O-])c1OCC(F)(F)F (stereo not shown) , tested on kochia?
Reply text: 100

---

- Test system: wheat
- METHOD SUMMARY: Test A pre-/postemergence greenhouse test
- Type: in vivo, Triticum aestivum
- TEST PARAMETERS: Postemergence, 125 g ai/ha; 0 to 100 scale, 0 is no effect, 100 is complete control
As shown below, each of these molecules has a reported Wheat plant response rating value.
Form: value (number only, do not type unit).

Sample records with Wheat plant response rating:
[
  {
    "MOLECULE": "Cc1cc[n+]([O-])c([S+]([O-])Cc2c(C(F)(F)F)nn(C)c2OCC(F)(F)F)c1 (racemic)",
    "Wheat plant response rating": 60
  },
  {
    "MOLECULE": "Cn1nc(C(F)(F)F)c(CS(=O)(=O)c2cccc[n+]2[O-])c1OC(F)F",
    "Wheat plant response rating": 60
  },
  {
    "MOLECULE": "Cn1nc(C(F)(F)F)c(C[S+]([O-])c2ccc(Cl)c[n+]2[O-])c1Cl (racemic)",
    "Wheat plant response rating": 50
  },
  {
    "MOLECULE": "Cn1nc(C(F)(F)F)c(C(Cl)S(=O)(=O)c2ccc(Cl)c[n+]2[O-])c1Cl (racemic)",
    "Wheat plant response rating": 0
  },
  {
    "MOLECULE": "Cc1cc[n+]([O-])c([S+]([O-])C(C)c2c(C(F)(F)F)nn(C)c2Cl)c1 (mixture of isomers)",
    "Wheat plant response rating": 0
  }
]

Inquiry: Endpoint output: Wheat plant response rating of Cc1cc[n+]([O-])c(S(=O)(=O)C(C)c2c(C(F)(F)F)nn(C)c2OC(F)F)c1 (stereo not shown) . Value?
Reply text: 50

Inquiry: Note, next up: CC(c1c(C(F)(F)F)nn(C)c1Cl)S(=O)(=O)c1ccc(Cl)c[n+]1[O-] (racemic)
Reply text: 30

---

- System: Surinam grass
- METHOD SUMMARY: Test C pre-/postemergence test
- Type: in vivo, Brachiaria decumbens
- TEST PARAMETERS: 125 g ai/ha, preemergence; scale 0 (no effect) to 100 (complete control)
Property: Surinam Grass plant response rating; scope: individual compounds
Give a plain numeric answer without units written out.

# count of solved cases: 6
[
  {
    "COMPOUND": "C#CCOc1c(CS(=O)(=O)c2cccc[n+]2[O-])c(C(F)(F)F)nn1C",
    "Surinam Grass plant response rating": 90
  },
  {
    "COMPOUND": "Cn1nc(C(F)(F)F)c(C[S+]([O-])c2cccc[n+]2[O-])c1OCC(F)F (centres unmarked)",
    "Surinam Grass plant response rating": 100
  },
  {
    "COMPOUND": "Cn1nc(C(F)(F)F)c(C[S+]([O-])c2ccc(Cl)c[n+]2[O-])c1OCC(F)(F)F (racemic)",
    "Surinam Grass plant response rating": 100
  },
  {
    "COMPOUND": "CCc1cc[n+]([O-])c(S(=O)(=O)Cc2c(C(F)(F)F)nn(C)c2OC(F)F)c1",
    "Surinam Grass plant response rating": 70
  },
  {
    "COMPOUND": "Cn1nc(C(F)(F)F)c(C[S+]([O-])c2ccc(F)c[n+]2[O-])c1OC(F)F (centres unmarked)",
    "Surinam Grass plant response rating": 85
  },
  {
    "COMPOUND": "Cn1nc(C(F)(F)F)c(C[S+]([O-])c2cc(Cl)cc[n+]2[O-])c1Cl (racemic)",
    "Surinam Grass plant response rating": 90
  }
]

Inquiry: // lookup Surinam Grass plant response rating | system=Surinam grass | key= Cc1cc([S+]([O-])Cc2c(C(F)(F)F)nn(C)c2OCC(F)(F)F)[n+]([O-])cc1Cl (centres unmarked)
Reply text: 90

Inquiry: Do the same for C#CCOc1c(C[S+]([O-])c2cccc[n+]2[O-])c(C(F)(F)F)nn1C (centres unmarked) please
Reply text: 85

---

Examples of compounds with documented Plant response rating, Sowthistle follow.
- Test system: common sowthistle
- METHOD SUMMARY: Test F preemergence test
- Assay type: in vivo, Sonchus oleraceous
- TEST PARAMETERS: Preemergence; 31 g ai/ha; scale 0 to 100
Form: value (number only, do not type unit).

[
  {
    "COMPOUND": "Cc1cc[n+]([O-])c(S(=O)(=O)Cc2c(C(F)(F)F)nn(C)c2Cl)c1",
    "Plant response rating, Sowthistle": 0
  },
  {
    "COMPOUND": "CCn1nc(C(F)(F)F)c(CS(=O)(=O)c2cc(C)cc[n+]2[O-])c1OCC(F)(F)F",
    "Plant response rating, Sowthistle": 0
  },
  {
    "COMPOUND": "Cc1cc[n+]([O-])c([S+]([O-])Cc2c(C(F)(F)F)nn(C)c2OCC(F)(F)F)c1 (racemic)",
    "Plant response rating, Sowthistle": 100
  },
  {
    "COMPOUND": "Cn1nc(C(F)(F)F)c(C[S+]([O-])c2ccc(Cl)c[n+]2[O-])c1OCC(F)F (centres unmarked)",
    "Plant response rating, Sowthistle": 0
  }
]

Would you kindly look at the next entry?
Inquiry: Requested read-out Plant response rating, Sowthistle, target or system common sowthistle, entry CC(Oc1c(C[S+]([O-])c2cccc[n+]2[O-])c(C(F)(F)F)nn1C)C(F)(F)F (centres unmarked)
Reply text: 0
